Target: purine nucleoside phosphorylase (PNP) (Bos taurus)
Sequence (P55859 whole entry): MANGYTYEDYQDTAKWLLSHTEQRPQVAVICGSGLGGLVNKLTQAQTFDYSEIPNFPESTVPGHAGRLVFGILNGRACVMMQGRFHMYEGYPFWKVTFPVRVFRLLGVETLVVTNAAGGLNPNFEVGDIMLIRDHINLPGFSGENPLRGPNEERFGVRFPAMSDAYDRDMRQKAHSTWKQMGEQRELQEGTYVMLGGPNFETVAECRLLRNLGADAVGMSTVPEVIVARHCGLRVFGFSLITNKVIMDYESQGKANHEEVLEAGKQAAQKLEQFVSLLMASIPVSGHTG
quantity-kind: IC50

Each compound below has a reported value. Please supply its IC50.
1. Nc1nc2c([C@@H](CO)c3ccccc3)c[nH]c2c(=O)[nH]1
2. Nc1nc2c([C@@H](CO)c3ccccc3F)c[nH]c2c(=O)[nH]1

Response given:
~10 nM
~10 nM

Data credit: patent US6043365A
